Biological target: Large T antigen (Simian virus 40)
Assay: SV40 large T antigen inhibitors, biochemical (AID 1903)
Conditions: SV40 large T antigen ATPase/helicase inhibition assay; at 20 µM; active compounds read high
The whole screen tested about 310,000 compounds, of which about 1,200 (0.39%) were called active. Only a sample is shown. Measured potencies and affinities stand elsewhere.
Lab note: anything with inhibition at or over 7% counts as 1.0; the rest go in 0.0.

Lookup: Please check the record CCn1c(C)nc2cc(C(=O)N/N=C/c3cccc(OC)c3O)ccc21 and state if its inhibition is at or above 7%.
Found: 0.0

Lookup: Please check the record CC(=O)c1ccc(O)c(CO)c1 and state if its inhibition is at or above 7%.
Found: 1.0

Lookup: Please check the record c1cc(CNc2ccc(N3CCOCC3)cc2)ccn1 and state if its inhibition is at or above 7%.
Found: 0.0

Lookup: Please check the record O=C(O)c1ccc(O)c(O)c1 and state if its inhibition is at or above 7%.
Found: 1.0

Lookup: Please check the record NC(=S)N/N=C/c1ccccc1 and state if its inhibition is at or above 7%.
Found: 1.0

Lookup: Please check the record COc1ccc(OCC(=O)Nc2ccc(N3CCOCC3)cc2)cc1 and state if its inhibition is at or above 7%.
Found: 1.0

Lookup: Please check the record CCOc1ccc(C(=O)NC2CC(=O)N(c3ccc4c(c3)OCCO4)C2)cc1 (configuration not stated) and state if its inhibition is at or above 7%.
Found: 1.0

----------
Molecular target: Large T antigen (Simian virus 40) (UniProt P03070)
Sequence (P03070 whole entry, looked up): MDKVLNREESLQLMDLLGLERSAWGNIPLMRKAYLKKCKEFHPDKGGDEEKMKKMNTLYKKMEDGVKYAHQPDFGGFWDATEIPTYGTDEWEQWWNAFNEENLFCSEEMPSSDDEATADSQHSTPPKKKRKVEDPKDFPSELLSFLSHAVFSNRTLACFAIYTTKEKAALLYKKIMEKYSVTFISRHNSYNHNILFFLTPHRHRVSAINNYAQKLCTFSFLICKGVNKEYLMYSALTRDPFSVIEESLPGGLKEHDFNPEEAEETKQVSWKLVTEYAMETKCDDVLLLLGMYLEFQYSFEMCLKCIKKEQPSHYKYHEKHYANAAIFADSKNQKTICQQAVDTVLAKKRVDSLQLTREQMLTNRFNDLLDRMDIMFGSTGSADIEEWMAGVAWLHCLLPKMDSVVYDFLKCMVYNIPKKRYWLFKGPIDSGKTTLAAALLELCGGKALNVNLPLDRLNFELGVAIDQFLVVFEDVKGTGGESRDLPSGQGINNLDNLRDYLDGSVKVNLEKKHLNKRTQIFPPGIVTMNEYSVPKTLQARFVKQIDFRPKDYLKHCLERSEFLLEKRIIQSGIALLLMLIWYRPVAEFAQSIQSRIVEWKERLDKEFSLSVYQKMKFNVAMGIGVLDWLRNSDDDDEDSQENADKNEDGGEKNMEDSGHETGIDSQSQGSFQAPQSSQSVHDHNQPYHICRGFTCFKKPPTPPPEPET
Experiment: SV40 large T antigen inhibitors, biochemical (AID 1903)
Conditions: SV40 large T antigen ATPase/helicase inhibition assay; at 20 µM; active compounds read high
About 1,200 (0.39%) of roughly 310,000 compounds were called active. Not all results are given here. Potency and affinity values are given separately.
Reported inhibition values for the following molecules.
Please reply with the bare figure in % and do not write the unit itself.

Below, each entry is followed by its recorded inhibition result.
{"molecule": "CC(=O)N1N=C(c2ccc(NS(C)(=O)=O)cc2)CC1c1ccc2nccnc2c1 (stereo unspecified)", "measured": 8.1}
{"molecule": "NC(=O)Cc1c[nH]c2cccc(O)c12", "measured": 30.1}
{"molecule": "CCn1cc(C(=O)NCC(C)C)c(=O)c2cc(F)c(N3CCN(C)CC3)cc21", "measured": 15.3}
{"molecule": "CCCC12CN(C(=O)c3ccc(OC)cc3)CC(C)(CN(C(=O)c3ccc(OC)cc3)C1)C2=O", "measured": 14.8}
{"molecule": "NS(=O)(=O)c1ccc(CNS(=O)(=O)c2ccc3ccccc3c2)cc1", "measured": 8.92}

Lab note: next molecule to report on.
Lab note: CCN(CC)C(=O)C(=O)c1cccn1-c1ccc(C#N)cc1 gave inhibition of 12.2

----------
Target: Large T antigen (Simian virus 40)
Experiment: SV40 large T antigen inhibitors, biochemical (AID 1903)
Details: SV40 large T antigen ATPase/helicase inhibition assay; at 20 µM; active compounds read high
The whole screen tested about 310,000 compounds, of which about 1,200 (0.39%) were called active. These entries were drawn from the full list. Potency and affinity values are given separately.
reported property: inhibition (%)
Please reply with the bare figure in % and do not write the unit itself.

Lab note: CN1CCN(CC(=O)O)CC1 gave inhibition of 17.9

----------
Target: Large T antigen (Simian virus 40) (UniProt P03070)
Test: SV40 large T antigen inhibitors, biochemical (AID 1903)
Settings: SV40 large T antigen ATPase/helicase inhibition assay; at 20 µM; active compounds read high
Hit rate of the full screen: of about 310,000 compounds, about 1,200 (0.39%) were called active. Not all results are given here. Potency and affinity values are given separately.
Lab note: anything with inhibition at or over 20% counts as criterion met; the rest go in criterion not met.

{"compound": "CC1CCCCN1CCCNC(=O)C1CCN(c2nnc(-n3cccc3)s2)CC1 (stereo not given)", "assigned category": "criterion not met"}
{"compound": "COc1ccccc1N=Cc1c(C)[nH]n(-c2ccc(C)cc2C)c1=O", "assigned category": "criterion met"}
{"compound": "CC1CC(C)CN(CCCNC(=O)C2CCN(c3nnc(-n4cccc4)s3)CC2)C1 (stereo not given)", "assigned category": "criterion not met"}
{"compound": "COc1ccc(C(=O)NNC(=O)C(=O)NC(C)c2ccccc2)cc1OC (stereo not given)", "assigned category": "criterion not met"}
{"compound": "COc1ccc(N=Cc2c(O)n(-c3cccc(C)n3)c(=O)c3ccccc23)c(OC)c1", "assigned category": "criterion not met"}
{"compound": "COc1cc(SC#N)ccc1N=Cc1c(C)[nH]n(-c2ccc(Cl)cc2)c1=O", "assigned category": "criterion not met"}

Lookup: Please check the record COc1cc(SC#N)ccc1N=Cc1c(C)[nH]n(-c2ccc(C)c(C)c2)c1=O and state if its inhibition is at or above 20%.
Found: criterion met

Lookup: Please check the record CCN1CCN(CCCNC(=O)C2CCN(c3nnc(-n4cccc4)s3)CC2)CC1 and state if its inhibition is at or above 20%.
Found: criterion not met

Lookup: Please check the record COc1cccc(/C=N/NC(=O)C(=O)N2CCCCCC2)c1O and state if its inhibition is at or above 20%.
Found: criterion met

----------
Reported inhibition values for the following compounds.
Biological target: Large T antigen (Simian virus 40)
Assay: SV40 large T antigen inhibitors, biochemical (AID 1903)
Conditions: SV40 large T antigen ATPase/helicase inhibition assay; at 20 µM; active compounds read high
Screen size: about 310,000 compounds; about 1,200 (0.39%) were called active. Only a sample is shown. Entries with a potency or affinity are not part of this list.
Please reply with the bare figure in % and do not write the unit itself.

Lab note: CN(C)S(=O)(=O)c1ccc(C(=O)Nc2ccn(C)n2)cc1 gave inhibition of 4.29

Lab note: O=C(N/N=C/c1ccc(OC(=O)c2ccco2)cc1)c1ccncc1 gave inhibition of 15.9

Lab note: O=C(O)c1ccccc1O gave inhibition of 13.6

Lab note: Cc1nn(-c2ccccc2)c(C)c1C(=O)OCC(=O)N1CC(=O)Nc2ccccc21 gave inhibition of 10.3

Lab note: COc1ccccc1Nc1nc(NCCO)nc(N)c1[N+](=O)[O-] gave inhibition of 7.82

Lab note: O=C(CCCN1C(=O)CSc2ncccc21)N1CCN(Cc2ccccc2)CC1 gave inhibition of -0.33

----------
Target: Large T antigen (Simian virus 40)
Assay: SV40 large T antigen inhibitors, biochemical (AID 1903)
Settings: SV40 large T antigen ATPase/helicase inhibition assay; at 20 µM; active compounds read high
Out of some 310,000 compounds screened, about 1,200 (0.39%) were called active. Only a sample is shown. Measured potencies and affinities stand elsewhere.
reported property: inhibition

{"compound": "C=CCN1C(=O)C2C3C=CC(C2C1=O)C1C2C(=O)N(CC=C)C(=O)C2C31 (stereo not given)", "measured": "0.93% (inactive)"}

# inhibition measured on Large T antigen (Simian virus 40) for item O=C(N=Nc1c(O)[nH]c2ccccc12)c1cc(-c2ccc(F)cc2)n[nH]1 = 7.92% (inactive)

# inhibition measured on Large T antigen (Simian virus 40) for item COc1cc(CNc2ccc(N3CCN(C(C)=O)CC3)cc2)ccc1OCc1ccc(F)cc1 = 19.5% (inactive)

# inhibition measured on Large T antigen (Simian virus 40) for item CC(C)[C@@H]1CC[C@@H](C)c2c(-c3ccccc3)n[nH]c21 = -1.85% (inactive)

# inhibition measured on Large T antigen (Simian virus 40) for item CCOc1ccccc1NC(=O)C1CCN(c2ccc(S(=O)(=O)N3CCCC3)cc2)CC1 = 5.71% (inactive)

----------
Target: Large T antigen (Simian virus 40)
Test: SV40 large T antigen inhibitors, biochemical (AID 1903)
Details: SV40 large T antigen ATPase/helicase inhibition assay; at 20 µM; active compounds read high
Among all 310,000 compounds or so, about 1,200 (0.39%) were called active. Not all results are given here. Measured potencies and affinities stand elsewhere.
Reported inhibition values for the following compounds.
Please reply with the bare figure in % and do not write the unit itself.

{"compound": "COc1ccc(/C=N/NC(=O)CC(=O)NCCc2ccccc2)cc1OC", "inhibition [%]": -5.15}

Lab note: Cc1cc2c(Nc3cccc(O)c3)ncnc2s1 gave inhibition of 26.2

Lab note: N#C/C(=C\c1cccnc1)C(=O)Nc1ccc(Cl)cc1 gave inhibition of 14.4

Lab note: O=C1CSC(=S)N1/N=C/c1ccc(Cl)c([N+](=O)[O-])c1 gave inhibition of 29.2

Lab note: COc1ccccc1NS(=O)(=O)c1ccc(O)cc1 gave inhibition of 7.04

Lab note: Cc1ccc(C2=NOC(=O)/C2=C\c2ccccc2)cc1 gave inhibition of 59.5

Lab note: CCOc1cc(/C=N/NC(=O)C2CCCC2)ccc1O gave inhibition of 36.2

Lab note: Cc1ccc(SC(CC(=O)c2ccc(C)cc2)C(=O)O)cc1 (stereo not given) gave inhibition of 19.4

Lab note: O=C1Nc2ccccc2Nc2ccccc21 gave inhibition of 0.33

FYI, the data here is from PubChem BioAssay AID1903.
